Test system: Leishmania donovani
assay explanation: Leishmania intramacrophage assay
Assay type: functional, organism-based
Parameters: scale not given: in the data most compounds retested in dose-response had high values
condition details: 30.3 µM; […]
About 1,000 (1.4%) of roughly 69,000 compounds showed an effect of 50% or more. The full list was thinned out, with strong results kept by preference.
assay readout: Percent Effect (%)

1. CN1C[C@H](NC(=O)c2cscn2)[C@@H]2OCCC[C@@H]21.O=C(O)C(F)(F)F    54.94
2. COc1cc(C2SCC(=O)Nc3[nH]ncc32)cc2c1OCO2 (centres undefined)    1.862
3. O=C(C[C@@H]1COC[C@H]2CN(CC3CC3)C[C@@H]12)NCc1cccnc1.O=C(O)C(F)(F)F.O=C(O)C(F)(F)F    54.71
4. O=C(C[C@@H]1COC[C@H]2CN(Cc3cccnc3)C[C@@H]12)NCC1CC1.O=C(O)C(F)(F)F.O=C(O)C(F)(F)F    18.63

* * *

System: Leishmania donovani
assay explanation: Leishmania intramacrophage assay
Assay type: functional, organism-based
Design: scale not given: in the data most compounds retested in dose-response had high values
condition details: 30.3 µM; […]
The campaign covered roughly 69,000 compounds. About 1,000 (1.4%) showed an effect of 50% or more. Only a selection was taken, and strong results are over-represented in it overall.
assay readout: Percent Effect (%)

1. O=C(Nc1ccc(F)cc1)N1CCC(CO)(Nc2ccccc2)CC1    1.566
2. Cl.NC(Cc1nc(-c2ccccc2)no1)c1ccccc1 (centres undefined)    -5.876
3. CN(C)C[C@H]1C[C@@H]2CN(Cc3ccco3)C[C@@H]2O1.O=C(O)C(F)(F)F.O=C(O)C(F)(F)F    -9.327
4. COCCN1C[C@@H]2[C@@H](OC)CCN(C(=O)Cc3ccccc3)[C@@H]2C1.O=C(O)C(F)(F)F    35.25
5. Cc1ccc(CN2CCO[C@H]3[C@@H](OCc4cccnc4)CC[C@@H]32)o1.O=C(O)C(F)(F)F.O=C(O)C(F)(F)F    19.54
6. Cc1noc(C)c1CN1C[C@@H]2C[C@H](C(=O)NCC3CC3)N(C)[C@@H]2C1.O=C(O)C(F)(F)F.O=C(O)C(F)(F)F    -4.016
7. Fc1cnccc1CN1CCC2(CCNCC2)C1    25.89
8. Cc1ccc(NC(=O)N2CCC(CO)(Nc3ccccc3)CC2)cc1    64.38
9. Cl.NC(CC1CCCCC1)c1ccccc1 (centres undefined)    68.07

* * *

System: Leishmania donovani
assay explanation: Leishmania intramacrophage assay
Type: functional, organism-based
Parameters: scale not given: in the data most compounds retested in dose-response had high values
condition details: 30.3 µM; […]
The campaign covered roughly 69,000 compounds. About 1,000 (1.4%) showed an effect of 50% or more. The entries come from a sample that favours strong results as a whole.
The recorded Percent Effect of each item maps onto one of these classes: c1 = under 10%, c2 = from 10% up to 20%, c3 = 20% and over

1. CC(C)N(C)Cc1cncc2c1CCN(Cc1cccs1)C2.Cl.Cl.Cl    c1
2. O=C(N[C@@H]1CN[C@@H]2CCCO[C@@H]21)c1cscn1.O=C(O)C(F)(F)F    c1
3. CCCN1CCC(c2nc3ccc(C)cn3n2)CC1.O=C(O)C(F)(F)F    c2
4. Cc1c(C2N3C[C@]4(C)CN2C[C@](C)(C3)C4=O)[nH]c(=O)[nH]c1=O (stereo not given in full)    c2
5. O=C(O)C(F)(F)F.O=C(O)C(F)(F)F.c1cncc(OC[C@]23COC[C@H]2CN(C2CCC2)C3)c1    c3
6. O=C(O)C(F)(F)F.O=C(O)C(F)(F)F.c1cncc(OC[C@@]23CCO[C@@H]2CCN(Cc2cccs2)C3)c1    c2
7. COCCN1CC[C@@H]2CN(Cc3cccnc3OC)C[C@@H]2C1.O=C(O)C(F)(F)F.O=C(O)C(F)(F)F    c3
8. O=C(O)C(F)(F)F.O=C(O)C(F)(F)F.c1ccc(CO[C@@H]2CN(Cc3nccs3)[C@@H]3COC[C@@H]32)nc1    c3
9. Cc1cccc(-c2ncc(CNC(C)Cc3ncccc3C)cn2)c1 (stereo not given)    c1
10. O=C(O)C(F)(F)F.c1cncc(N2CCO[C@H]3CN(CC4CCOC4)C[C@H]32)c1 (stereo not given in full)    c3
11. O=C(O)C(F)(F)F.O=C1Nc2ccccc2C12CCN(Cc1nccs1)CC2    c2
12. CCN1CCC2(CC1)C(=O)Nc1ccc(C(=O)NC)cc12.O=C(O)C(F)(F)F    c1
13. O=C(O)C(F)(F)F.O=C(O)C(F)(F)F.c1ccc(CN2CC[C@H]3CO[C@H](CNc4ncccn4)[C@H]3C2)cc1    c1
14. CNC(=O)CN1CCC12CCN(C(=O)Cc1ccccc1)C2.O=C(O)C(F)(F)F (stereo not given)    c1
15. Fc1ccc(CN2C[C@@H](OCc3ccccn3)[C@H]3COC[C@H]32)cc1.O=C(O)C(F)(F)F.O=C(O)C(F)(F)F    c3
16. O=C(O)C(F)(F)F.O=C(O)C(F)(F)F.c1cnc(N2CCCC3(CCN(CC4CC4)C3)C2)nc1 (stereo not given)    c3
17. Cl.Cl.O=c1[nH]c2ncccc2n1C1CCNCC1    c2
18. CC(C)(C)c1cn(C[C@H]2CC3CCN2C[C@@H]3C(=O)N2CCOCC2)nn1 (stereo not given in full)    c1
19. Cn1ccnc1CN1C[C@@H]2OCCN(c3ncccn3)[C@@H]2C1    c3
20. Cc1cccc(CN2C[C@H](OCc3ccccn3)[C@H]3COC[C@H]32)n1.O=C(O)C(F)(F)F.O=C(O)C(F)(F)F    c2
21. CCO[C@H]1CN(CC2CC2)[C@@H]2CCCO[C@H]12.O=C(O)C(F)(F)F    c2
22. COc1ccccc1CC(=O)N1C[C@H]2CC[C@@H]1CN(Cc1cscn1)C2    c1
23. O=C(N1CCCO1)[C@@]12CCO[C@@H]1CCN(Cc1cccnc1)C2.O=C(O)C(F)(F)F.O=C(O)C(F)(F)F    c2
24. CN1[C@H]2CC[C@@H]1CN(c1cc(Sc3cccs3)nc(N)n1)CC2    c1
25. O=C(Nc1cccnc1)[C@H]1C[C@H]2OCC[C@H]2N(CC2CC2)C1.O=C(O)C(F)(F)F.O=C(O)C(F)(F)F    c1
26. CC(Cc1cccc(F)c1)NCc1cnc(N2CCN(C)CC2)nc1 (stereo not given)    c3
27. CC(C)NC(=O)[C@@H]1C[C@H]2NCC[C@H]2O1.Cl    c3
28. Cc1ccc(N2CCO[C@H]3CN(Cc4ccccn4)C[C@H]32)nn1.O=C(O)C(F)(F)F.O=C(O)C(F)(F)F.O=C(O)C(F)(F)F    c3
29. Cc1ccc(C(=O)N2C[C@H]3CNC[C@H]3C2)cn1    c1
30. Cc1oncc1C(=O)N1CC[C@H]2[C@H](C[C@@H](CN3CCCC3)N2C)C1.O=C(O)C(F)(F)F.O=C(O)C(F)(F)F    c3
31. O=C(Cc1ccncc1)N1C[C@H]2CC[C@@H]1CN(Cc1cccnc1)C2    c3
32. COc1ncccc1CN1C[C@H]2CCN(c3ncccn3)C[C@H]2C1.O=C(O)C(F)(F)F    c3

* * *

Overview of reported Percent Effect across a group of molecules:
Tested on: Leishmania donovani
assay explanation: Leishmania intramacrophage assay
Type: functional, organism-based
Parameters: scale not given: in the data most compounds retested in dose-response had high values
condition details: 30.3 µM; […]
Screen size: about 69,000 compounds; about 1,000 (1.4%) showed an effect of 50% or more. The full list was thinned out, with strong results kept by preference.
assay readout: Percent Effect

1. Cn1ncc2c(N3CCCC4(CCNC4)C3)nc(C(C)(C)C)nc21 (centres undefined)    88.19%
2. Cc1cc(CC(C)NC2CCN(CC(C)C)CC2)[nH]n1 (centres undefined)    19.46%
3. CN(C)C(=O)CN1CC[C@@H]2O[C@@H](COCc3cccnc3)CC[C@@H]21.O=C(O)C(F)(F)F.O=C(O)C(F)(F)F    38.61%
4. Fc1cnc(N2CCCC3(CCN(Cc4ccoc4)C3)C2)nc1.O=C(O)C(F)(F)F.O=C(O)C(F)(F)F (centres undefined)    13.62%
5. CNC(=O)[C@@H]1[C@H]2CNCCN2C[C@H]1c1ccccc1    3%
6. NCC1[C@H]2CN(Cc3cccc(Cl)c3)C[C@@H]12 (some centres undefined)    88.17%
7. CCOC(=O)N1CCC(NC(C)Cc2cc(C)n[nH]2)CC1 (centres undefined)    11.64%
8. CC(C)CN1CCC2(COCc3cnc(-c4ccccc4)nc32)C1.O=C(O)C(F)(F)F (centres undefined)    36%
9. CCCn1nc(C)c(-c2cncn2CC2(N(C)C)CCC(C)CC2)c1C (centres undefined)    1.091%
10. Cn1cc(CN2CCC3(CCCN3Cc3cccnc3)CC2)cn1.O=C(O)C(F)(F)F.O=C(O)C(F)(F)F.O=C(O)C(F)(F)F    63.2%
11. Cc1ccc(N2CCC3(CN(CCO)CCC3(F)F)C2)nn1.O=C(O)C(F)(F)F (centres undefined)    39.18%
12. COCC1CC2(CCN(c3cc(OC)ncn3)CC2)CN1C(C)C.O=C(O)C(F)(F)F (centres undefined)    17.84%
13. Cc1cc(N2CCC(NC(C)Cc3ccsc3)CC2)nc(C)n1 (centres undefined)    70.01%
14. COc1cc2nc(NCc3ccc(C)nc3)nc(N)c2cc1OC    62.6%
15. COCCN1C[C@@H]2OCCN(c3ccnc(N(C)C)n3)[C@@H]2C1    23.22%
16. COCC1CC2(CCN(CC3CC3)CC2)CN1Cc1ccccn1.O=C(O)C(F)(F)F.O=C(O)C(F)(F)F (centres undefined)    40.82%
17. CN(C)C[C@H]1C[C@@H]2CN(Cc3ccoc3)C[C@@H]2O1.O=C(O)C(F)(F)F.O=C(O)C(F)(F)F    4.803%
18. Cc1nnc([C@H]2C[C@@H]3CCN(Cc4cc(C)on4)C[C@H]3O2)[nH]1    19.71%
19. O=C(N1CCOCC1)[C@@]12CCO[C@@H]1CCN(Cc1ccncc1)C2.O=C(O)C(F)(F)F.O=C(O)C(F)(F)F    2.48%
20. CN(C)c1nccc(N2CCO[C@H]3CN(Cc4ccco4)C[C@H]32)n1    57.89%
21. OCCN1CCC(F)(F)C2(CCN(c3cccnc3)C2)C1 (centres undefined)    51.95%
22. CC(C)NC(=O)c1ccc2c(c1)C1(CCN(C)CC1)C(=O)N2.O=C(O)C(F)(F)F    1.546%
23. Cc1cc(CNC2(c3ccccc3)CCCCC2)no1    4.963%
24. Cc1ccc(O[C@@H]2C[C@H]3CN(C(=O)Cc4ccccn4)CCN3C2)cc1.O=C(O)C(F)(F)F.O=C(O)C(F)(F)F    11.94%
25. Cc1ccc(CN2CCC3(CC2)C(=O)Nc2ccccc23)s1.O=C(O)C(F)(F)F    7.529%
26. Cc1cccc(CN2C(=O)C[C@H]3[C@@H]2CCN3Cc2nccs2)n1.O=C(O)C(F)(F)F.O=C(O)C(F)(F)F    2.484%
27. Cc1cc(CNC2(c3ccccc3)CCCCC2)on1    51.47%
28. COCC1CN(c2ccc(C#N)c(Cl)c2)CCO1 (centres undefined)    27.15%
29. O=C(c1ccc2c(c1)OCO2)N1CCC(C(=O)O)(c2ccccc2)CC1    0.8951%
30. Cc1nc(C2(NCc3cccc(F)c3F)CCCCC2)no1    15.79%
31. O=C(C1CCOC1)N1CCC2(CCNCC2)C1 (centres undefined)    11.74%
32. CC(C)N1CC[C@@H]2OC[C@H](C(=O)Nc3cccnc3)C[C@@H]2C1.O=C(O)C(F)(F)F.O=C(O)C(F)(F)F    -12.98%
33. Cn1ncc2c(N3CCCN4CCC[C@H]4C3)nc(C(C)(C)C)nc21    -35.36%
34. CCCN1CCC[C@]2(CCC(=O)N2Cc2ccncc2)[C@H]1CC.O=C(O)C(F)(F)F.O=C(O)C(F)(F)F    -2.592%
35. COc1ccccc1CCN(C)Cc1nc(N)nc(N(C)C)n1    17.72%
36. O=C(O)C(F)(F)F.O=C(O)C(F)(F)F.O=C(O)C(F)(F)F.O=C1C[C@@H]2[C@H](CCN2Cc2ccccn2)N1Cc1ccncc1    27.44%
37. FC1(F)CCNCC12CCN(c1cccnc1)C2.O=C(O)C(F)(F)F.O=C(O)C(F)(F)F (centres undefined)    9.392%
38. Cc1cccc(C)c1NC(=O)CNC(C)Cc1ccsc1 (centres undefined)    11.71%
39. COc1ccc(-n2nnnc2C2(NCc3ccco3)CCCCC2)cc1    -17.59%
